Molecular target: IKZF1 (Homo sapiens (Human), UniProt Q13422+Q96SW2)
Sequence (Q13422 whole entry): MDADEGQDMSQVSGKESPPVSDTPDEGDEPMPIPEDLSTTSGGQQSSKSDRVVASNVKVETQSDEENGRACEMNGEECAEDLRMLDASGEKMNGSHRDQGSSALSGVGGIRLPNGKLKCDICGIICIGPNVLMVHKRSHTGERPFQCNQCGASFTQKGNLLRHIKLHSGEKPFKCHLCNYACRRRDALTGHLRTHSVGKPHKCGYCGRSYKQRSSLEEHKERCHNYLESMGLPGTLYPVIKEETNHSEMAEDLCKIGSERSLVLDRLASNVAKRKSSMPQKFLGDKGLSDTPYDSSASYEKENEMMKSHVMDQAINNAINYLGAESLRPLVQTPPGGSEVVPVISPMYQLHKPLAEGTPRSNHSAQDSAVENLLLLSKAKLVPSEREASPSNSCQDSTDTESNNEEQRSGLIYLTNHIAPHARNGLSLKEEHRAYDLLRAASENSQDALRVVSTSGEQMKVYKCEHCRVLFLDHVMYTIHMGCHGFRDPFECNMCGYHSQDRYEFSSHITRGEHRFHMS
Sequence (Q96SW2 whole entry): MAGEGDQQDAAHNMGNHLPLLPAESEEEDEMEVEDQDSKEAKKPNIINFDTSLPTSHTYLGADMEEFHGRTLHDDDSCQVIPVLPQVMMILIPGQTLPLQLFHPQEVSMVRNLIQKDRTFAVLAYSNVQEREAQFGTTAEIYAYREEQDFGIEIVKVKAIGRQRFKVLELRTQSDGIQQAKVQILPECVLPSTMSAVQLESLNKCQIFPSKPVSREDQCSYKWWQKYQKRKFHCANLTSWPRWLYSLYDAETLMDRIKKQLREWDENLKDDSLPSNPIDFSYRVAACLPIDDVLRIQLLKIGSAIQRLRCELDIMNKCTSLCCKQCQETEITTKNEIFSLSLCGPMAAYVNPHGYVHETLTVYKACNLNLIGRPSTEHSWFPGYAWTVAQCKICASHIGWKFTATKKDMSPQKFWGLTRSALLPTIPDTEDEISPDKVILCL
Sequence (Q16531 2-1140 partner): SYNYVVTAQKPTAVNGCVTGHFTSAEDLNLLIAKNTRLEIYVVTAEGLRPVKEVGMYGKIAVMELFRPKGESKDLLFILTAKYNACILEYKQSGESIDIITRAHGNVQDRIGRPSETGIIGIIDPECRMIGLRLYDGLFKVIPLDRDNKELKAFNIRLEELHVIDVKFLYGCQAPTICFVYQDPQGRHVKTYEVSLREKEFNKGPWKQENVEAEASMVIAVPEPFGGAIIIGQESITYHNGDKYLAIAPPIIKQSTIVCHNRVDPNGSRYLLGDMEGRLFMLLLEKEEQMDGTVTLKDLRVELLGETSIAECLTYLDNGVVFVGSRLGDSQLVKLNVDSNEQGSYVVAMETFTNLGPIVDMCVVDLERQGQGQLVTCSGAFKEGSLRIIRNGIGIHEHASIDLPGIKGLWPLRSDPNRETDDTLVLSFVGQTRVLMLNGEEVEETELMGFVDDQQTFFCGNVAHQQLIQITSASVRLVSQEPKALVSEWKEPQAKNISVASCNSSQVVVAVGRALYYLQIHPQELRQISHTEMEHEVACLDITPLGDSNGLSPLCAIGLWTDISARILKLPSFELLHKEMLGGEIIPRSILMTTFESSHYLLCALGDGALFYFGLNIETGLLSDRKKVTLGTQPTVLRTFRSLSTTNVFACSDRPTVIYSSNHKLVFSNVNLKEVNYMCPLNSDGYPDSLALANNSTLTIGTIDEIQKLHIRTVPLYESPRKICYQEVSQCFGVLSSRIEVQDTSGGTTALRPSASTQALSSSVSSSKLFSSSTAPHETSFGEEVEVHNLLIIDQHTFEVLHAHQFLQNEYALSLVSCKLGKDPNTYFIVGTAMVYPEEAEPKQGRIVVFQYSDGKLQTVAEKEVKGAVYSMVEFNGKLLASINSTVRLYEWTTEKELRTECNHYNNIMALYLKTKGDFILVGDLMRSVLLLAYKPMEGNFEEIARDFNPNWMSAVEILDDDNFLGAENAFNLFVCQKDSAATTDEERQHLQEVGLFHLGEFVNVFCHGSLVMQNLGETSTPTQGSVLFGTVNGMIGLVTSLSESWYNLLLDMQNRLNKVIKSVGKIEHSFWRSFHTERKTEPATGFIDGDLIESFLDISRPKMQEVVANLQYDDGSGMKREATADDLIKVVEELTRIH
Test: In vitro IKZF1 HiBit Assay (HEK293T Flp-in-HiBiT-IKZF1 stable cell line)
Assay type: cell-based
Conditions: HEK293T Flp-in-HiBiT-IKZF1 stable cell line, 6 hrs incubation; read-out: IKZF1 HiBit DC50
Reported Property: DC50

O=C1CCC(N2Cc3cc(-c4cc(CN5CCC(O)C5)c5ccn(C6CC6)c5n4)ccc3C2=O)C(=O)N1 (stereo not shown) [Example 142] ... > 10 µM

Recorded DC50 for O=C1CCC(N2Cc3cc(-c4cc(CN5CC(F)C5)c5ccn(C6CC6)c5n4)ccc3C2=O)C(=O)N1 (stereo not shown) [Example 143] , please? > 10 µM

Recorded DC50 for O=C1CCC(N2Cc3cc(-c4cc(CN5CCCC5)c5nccc(NC6CC6)c5n4)ccc3C2=O)C(=O)N1 (stereo not shown) [Example 244] , please? > 10 µM

Recorded DC50 for O=C1CCC(N2Cc3cc(-c4cc(CN5CCCC5)c5cc[nH]c5n4)c(F)cc3C2=O)C(=O)N1 (stereo not shown) [Example 122] , please? 0.001 to 0.01 µM
